Tested on: breast (SKBR3) cancer cell line
PROTOCOL TEXT: Cellular inhibition, Alamar Blue
Assay type: cell-based
RECORDED CONDITIONS: SKBR3, 24 hours
RESULT TYPE: IC50 (µM)

INSERT INTO results (compound, result_type, reported_result) VALUES
  ('CC(=O)Oc1ccccc1C(=O)O[C@@H]([C@H](O)[C@H](O)CO)[C@@H](O)C=O [PMN II-168, 3-(2′-Acetyloxybenzoyl)-D-glucose]', 'IC50', 201);

---

Test system: breast (SKBR3) cancer cell line
PROTOCOL TEXT: Cellular inhibition, Alamar Blue
Format: cell-based
RECORDED CONDITIONS: Homo sapiens, SK-BR-3; SKBR3, 48 hours
pIC50: −log10 of the molar value.
RESULT TYPE: pIC50

INSERT INTO assay_data (compound, result_type, reported_result) VALUES
  ('CC(=O)Oc1ccccc1C(=O)O [Aspirin, acetylsalicylic acid]', 'pIC50', 3.16),
  ('CC(=O)O[C@H]1C(=O)[C@@]2(C)[C@H]([C@H](OC(=O)c3ccccc3)[C@]3(O)C[C@H](OC(=O)[C@H](O)[C@@H](NC(=O)c4ccccc4)c4ccccc4)C(C)=C1C3(C)C)[C@]1(OC(C)=O)CO[C@@H]1C[C@@H]2O [Taxol, Paclitaxel]', 'pIC50', 5.49),
  ('COc1cc(/C=C/C(=O)CC(=O)/C=C/c2ccc(O)c(OC)c2)ccc1O [Curcumin]', 'pIC50', 4.00);
